# ASSAY DETAILS: In vivo pharmacokinetic study in SD rats
# CONDITION PARAMETERS: 1 mg/kg, PO, fasting, clear
Returns one of Condition met or Condition not met; Condition met when T1/2 is >= 10 h.

Completed entries (count: 2):
Request: Please indicate if the recorded T1/2 for C[C@H](NC(=O)[C@H]1CC(C(F)(F)c2ccc(F)cc2)CN1)C(=O)N[C@@H]1CCc2nc(N)ccc21 (some centres unmarked) [Compound L050] meets or exceeds 10 h.
Result: Condition not met

Request: Is the recorded value of T1/2 equal to or greater than 10 h for this compound? C[C@H](NC(=O)[C@H]1C[C@H](Cc2ccc(Cl)cc2)CN1)C(=O)NC1CCc2nc(N)ccc21 (some centres unmarked) [Compound L003]
Result: Condition not met

Continuing:
Request: Tell me whether T1/2 is at least 10 h here: C[C@H](NC(=O)[C@H]1C[C@H](Cc2cccc(Cl)c2)CN1)C(=O)NC1CCc2nc(N)ccc21 (some centres unmarked) [Compound L014]
Result: Condition met

Request: Given the entry C[C@H](NC(=O)[C@H]1C[C@H](Cc2ccc(F)c(Cl)c2)CN1)C(=O)NC1CCc2nc(N)ccc21 (some centres unmarked) [Compound L012] , answer whether its T1/2 meets or surpasses 10 h.
Result: Condition met

* * *

# ASSAY DETAILS: In vivo pharmacokinetic study in SD rats
# CONDITION PARAMETERS: 1 mg/kg, IV, not fasting, clear
Task for the reader: assign each of the following compounds its reported T1/2.
Units required after the number.

Notebook: C[C@H](NC(=O)[C@H]1C[C@H](Cc2ccc(F)cc2)CN1)C(=O)NC1CCc2nc(N)ccc21 (stereo partly drawn) [Compound L001] , T1/2 read as 31.1 ± 1.27 h

Just so you know, measured T1/2 for C[C@H](NC(=O)[C@H]1CC(C(F)(F)c2ccc(F)cc2)CN1)C(=O)N[C@@H]1CCc2nc(N)ccc21 (stereo partly drawn) [Compound L050] came out at 2.13 ± 0.25 h

Noted for C[C@H](NC(=O)[C@H]1C[C@H](Cc2ccc(F)c(Cl)c2)CN1)C(=O)NC1CCc2nc(N)ccc21 (stereo partly drawn) [Compound L012] : its T1/2 reads 12.0 ± 3.72 h

response.value for C[C@H](NC(=O)[C@H]1C[C@H](Cc2ccc(Cl)cc2)CN1)C(=O)NC1CCc2nc(N)ccc21 (stereo partly drawn) [Compound L003] (field: T1/2) = 5.84 ± 0.55 h

# T1/2 (compound: C[C@H](NC(=O)[C@H]1C[C@H](Cc2cccc(Cl)c2)CN1)C(=O)NC1CCc2nc(N)ccc21 (stereo partly drawn) [Compound L014] ) is 7.81 ± 1.16 h

Now let's try a different one.
# compound C[C@H](NC(=O)[C@H]1C[C@H](Cc2ccc(F)cc2)CN1)C(=O)N[C@@H]1CCc2nc(N)ccc21 [Compound L001-IS-01] ; its T1/2 = 42.4 ± 3.40 h

* * *

# ASSAY DETAILS: In vivo pharmacokinetic study in SD rats
# CONDITION PARAMETERS: 1 mg/kg, PO, fasting, clear
I'd be grateful if you could share measured Cmax for these entries.
Answers are plain numbers, in ng/mL.

Record excerpt, results attached:
The compound C[C@H](NC(=O)[C@H]1CC(C(F)(F)c2ccc(F)cc2)CN1)C(=O)N[C@@H]1CCc2nc(N)ccc21 (some centres unmarked) showed Cmax equal to 1373

get_value(item= C[C@H](NC(=O)[C@H]1C[C@H](Cc2ccc(Cl)cc2)CN1)C(=O)NC1CCc2nc(N)ccc21 (some centres unmarked) , readout=Cmax) returns 1777

// C[C@H](NC(=O)[C@H]1C[C@H](Cc2cccc(Cl)c2)CN1)C(=O)NC1CCc2nc(N)ccc21 (some centres unmarked) : Cmax value = 1967

Briefly, Cmax measured for C[C@H](NC(=O)[C@H]1C[C@H](Cc2ccc(F)cc2)CN1)C(=O)NC1CCc2nc(N)ccc21 (some centres unmarked) : 1483

// next entry
Form field Cmax, entry C[C@H](NC(=O)[C@H]1C[C@H](Cc2ccc(F)c(Cl)c2)CN1)C(=O)NC1CCc2nc(N)ccc21 (some centres unmarked) : 1777

* * *

# ASSAY DETAILS: In vivo pharmacokinetic study in SD rats
# CONDITION PARAMETERS: Sprague-Dawley (SD), rat, plasma, 1 mg/kg, IV, not fasting, clear, read-out: Cmax
METRIC: Cmax (ng/mL)
Numbers only, in ng/mL.

Consider the worked cases shown below.
Cmax in this record for C[C@H](NC(=O)[C@@H]1C=C(c2ccc(F)cc2F)CCN1)C(=O)N[C@@H]1CCc2nc(N)ccc21 (single isomer, unassigned) : 22500

Cmax in this record for "C[C@H](NC(=O)[C@H]1C=C(c2cccc(F)c2F)CCN1)C(=O)N[C@@H]1CCc2nc(N)ccc21" : 18200

List Cmax for every entry below, keeping the order given.
1. C[C@H](NC(=O)C1C=C(c2ccc(F)cc2)CCN1)C(=O)N[C@@H]1CCc2nc(N)ccc21 (single isomer, unassigned)
2. C[C@H](NC(=O)[C@@H]1C=C(c2ccc(F)c(F)c2)CCN1)C(=O)N[C@@H]1CCc2nc(N)ccc21 (single isomer, unassigned)

Result:
1: 16000; 2: 15700

* * *

# ASSAY DETAILS: In vivo pharmacokinetic study in SD rats
# CONDITION PARAMETERS: Sprague-Dawley (SD), rat, plasma, 1 mg/kg, IV, not fasting, clear
METRIC: half-life (h)
Give bare numbers, in h.

Below are worked cases with known answers.
What the record says about C[C@H](NC(=O)[C@@H]1C=C(c2ccc(F)cc2F)CCN1)C(=O)N[C@@H]1CCc2nc(N)ccc21 (single isomer, unassigned) : half-life is 5.88

In plain terms, "C[C@H](NC(=O)[C@H]1C=C(c2ccccc2F)CCN1)C(=O)N[C@@H]1CCc2nc(N)ccc21" has a documented half-life of 3.21

Memo: C[C@H](NC(=O)[C@@H]1C=C(c2ccc(F)c(F)c2)CCN1)C(=O)N[C@@H]1CCc2nc(N)ccc21 (single isomer, unassigned) , reported half-life: 3.39

Measured half-life of C[C@H](NC(=O)C1C=C(c2ccc(F)cc2)CCN1)C(=O)N[C@@H]1CCc2nc(N)ccc21 (single isomer, unassigned) : 4.18

The compound identified as "C[C@H](NC(=O)[C@H]1C=C(c2cccc(F)c2F)CCN1)C(=O)N[C@@H]1CCc2nc(N)ccc21" registered its half-life at 3.68

Data point: C[C@H](NC(=O)[C@@H]1C=C(c2ccc(Cl)cc2)CCN1)C(=O)N[C@@H]1CCc2nc(N)ccc21 (single isomer, unassigned) ; half-life = 4.51

Now for the compound whose half-life we want.
Sure, the documented half-life for "C[C@H](NC(=O)[C@H]1C=C(c2cccc(F)c2)CCN1)C(=O)N[C@@H]1CCc2nc(N)ccc21" is 2.71

* * *

# ASSAY DETAILS: In vivo pharmacokinetic study in SD rats
# CONDITION PARAMETERS: Sprague-Dawley (SD), rat, plasma, 1 mg/kg, IV, not fasting, clear, read-out: Cmax
METRIC: Cmax (ng/mL)
One number for each entry, in ng/mL.

Reported Cmax for "C[C@H](NC(=O)[C@H]1C=C(c2ccccc2F)CCN1)C(=O)N[C@@H]1CCc2nc(N)ccc21" was 18600

For each listed entry, give its Cmax.
1. C[C@H](NC(=O)[C@@H]1C=C(c2ccc(Cl)cc2)CCN1)C(=O)N[C@@H]1CCc2nc(N)ccc21 (single isomer, unassigned)
2. C[C@H](NC(=O)[C@H]1C=C(c2cccc(F)c2)CCN1)C(=O)N[C@@H]1CCc2nc(N)ccc21

Result:
1. 15900
2. 18000

* * *

Would you mind telling me the reported Cmax of each entry?
# ASSAY DETAILS: In vivo pharmacokinetic study in SD rats
# CONDITION PARAMETERS: 1 mg/kg, IV, not fasting, clear
Numbers only, in ng/mL.

# batch: return Cmax for each of the 2 molecules below
1. C[C@H](NC(=O)[C@H]1CC(C(F)(F)c2ccc(F)cc2)CN1)C(=O)N[C@@H]1CCc2nc(N)ccc21 (stereo partly drawn)
2. C[C@H](NC(=O)[C@H]1C[C@H](Cc2ccc(F)c(Cl)c2)CN1)C(=O)NC1CCc2nc(N)ccc21 (stereo partly drawn)

Result:
27167
26933

* * *

# ASSAY DETAILS: In vivo pharmacokinetic study in SD rats
# CONDITION PARAMETERS: 1 mg/kg, PO, fasting, clear
METRIC: AUClast (ng·h/mL)
Numbers only, in ng·h/mL.

A selection of reference data follows.
Given item C[C@H](NC(=O)[C@H]1C[C@H](Cc2ccc(Cl)cc2)CN1)C(=O)NC1CCc2nc(N)ccc21 (some centres unmarked) , the value recorded as its AUClast is 11167

AUClast reading for C[C@H](NC(=O)[C@H]1C[C@H](Cc2ccc(F)c(Cl)c2)CN1)C(=O)NC1CCc2nc(N)ccc21 (some centres unmarked) : 11618

So, C[C@H](NC(=O)[C@H]1CC(C(F)(F)c2ccc(F)cc2)CN1)C(=O)N[C@@H]1CCc2nc(N)ccc21 (some centres unmarked) ? Its AUClast was 3638

Lookup result for C[C@H](NC(=O)[C@H]1C[C@H](Cc2cccc(Cl)c2)CN1)C(=O)NC1CCc2nc(N)ccc21 (some centres unmarked) ; measured AUClast: 13180

More entries:
# molecule C[C@H](NC(=O)[C@H]1C[C@H](Cc2ccc(F)cc2)CN1)C(=O)NC1CCc2nc(N)ccc21 (some centres unmarked) ; its AUClast = 9822
